Biological target: T1, human BCMA protein (human, UniProt Q02223 1-54, limits assumed)
T1 sequence: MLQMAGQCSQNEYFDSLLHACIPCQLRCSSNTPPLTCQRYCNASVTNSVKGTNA
Experiment: affinity to human BCMA protein, method not stated
Below: a set of entries, each annotated with reported pKd.
The read-out pKd is expressed as -log10 of concentration in moles per litre.

// known answers, use as guide
INSERT INTO results (binder, assay_result) VALUES
  ('BCMA targeting trispecific protein 01B03 (other, not shown: large carriers; small tags and cut ends, trispecific) VHH: EVQLVESGGGLVQPGRSLTLSCAASTNIFSKSPMGWYRQAPGKQRELVAAIHGKSTLYADSVKGRFTISRDNAKNSIYLQMNSLRPEDTALYYCNKVPWGDYHPRNVVWGQGTQVTVSS', 7.58),
  ('BCMA targeting trispecific protein 02B06 (other, not shown: large carriers; small tags and cut ends, trispecific; also called 02B06 TriTAC) VHH: EVQLVESGGGLVQPGRSLTLSCAASTNIFSNSPMGWYRQAPGKQRELVAAIHGFSTLYADSVKGRFTISRDNAKNSIYLQMNSLRPEDTALYYCNKVPWGDYHPGNVYWGQGTQVTVSS', 8.17);

binder BCMA targeting trispecific protein 01G08 (other, not shown: large carriers; small tags and cut ends, trispecific; also called 01G08 TriTAC) VHH: EVQLVESGGGLVQPGRSLTLSCAASTNIQSISPMGWYRQAPGKQRELVAAIHGFETLYADSVKGRFTISRDNAKNSIYLQMNSLRPEDTALYYCNKVPWGDYHPGNVYWGQGTQVTVSS , pKd observed: 8.20

binder BCMA targeting trispecific protein 01F05 (other, trispecific; not shown: The C-terminal 6xHis tag is left out because it follows these missing domains) VHH: EVQLVESGGGLVQPGRSLTLSCAASTNIFSSSPMGWYRQAPGKQRELVAAIHGFSTWYADSVKGRFTISRDNAKNSIYLQMNSLRPEDTALYYCNKVPWGRYHPRNVYWGQGTQVTVSS , pKd observed: 7.78

binder BCMA targeting trispecific protein 02A07 (other, not shown: large carriers; small tags and cut ends, trispecific) VHH: EVQLVESGGGLVQPGRSLTLSCAASTNIFSKSPMGWYRQAPGKQRELVAAIHGNSTLYADSVKGRFTISRDNAKNSIYLQMNSLRPEDTALYYCNKVPWGDYHPREVYWGQGTQVTVSS , pKd observed: 7.74
